System: NF-κB activation in HEK293T pGF NF-κB cells
experimentalProtocol: TNF-α induced NF-κB activation assay
Type: cell-based
conditions: Homo sapiens, HEK-293T; NFκB activation assay; ± SD; read-out: pEC50 (converted)
Binary label based on EC50 with cut-off 10 µM: below gives met, not below gives not met.

Here are 5 compounds together with their reported answers.
INSERT INTO measurements (recordsmiles, category) VALUES
  ('O=C(Cc1ccc(-n2nc(Cl)c3ccccc32)cc1)Nc1noc2c1CCCC2', 'met'),
  ('Cc1nc(-c2cc(F)c(CC(=O)Nc3noc4c3CCCC4)c(F)c2)c(C)[nH]1', 'met'),
  ('Cc1nn(-c2ccc(CC(=O)Nc3noc4c3CCCC4)cc2)c2ccccc12', 'met'),
  ('Cc1nc(-c2ccc(CC(=O)Nc3noc4c3CCCC4)cc2F)c(C)[nH]1', 'not met'),
  ('Cc1nc(-c2ccc(CC(=O)Nc3noc4c3CCCC4)c(F)c2)c(C)[nH]1', 'not met');

Given O=C(Cc1ccc(-n2ncc3ccncc32)cc1)Nc1noc2c1CCCC2 , is recorded EC50 strictly lower than 10 µM?
not met

Strictly below 10 µM: is that where EC50 of Cc1cc(C2CC2)n(-c2ccc(CC(=O)Nc3noc4c3CCCC4)cc2)n1 sits?
met

----------
Test system: BJhTERT cells
experimentalProtocol: Cell viability assay (resazurin), BJhTERT non-transformed control
Assay type: cell-based
conditions: BJhTERT, 100 μM, two independent experiments
metricName: percentage cell viability (%)
Output spec: scalar in %, unitless text.

Solved entries:
INSERT INTO measurements (compound, measuredon, metricname, recordedresult) VALUES
  ('Cc1nc(-c2cc(F)c(CC(=O)Nc3noc4c3CCCC4)c(F)c2)c(C)[nH]1 [compound 23]', 'BJhTERT cells', 'percentage cell viability', 68.66),
  ('O=C(Cc1ccc(-n2nc(Cl)c3ccccc32)cc1)Nc1noc2c1CCCC2 [compound 12]', 'BJhTERT cells', 'percentage cell viability', 28.88);

// lookup percentage cell viability | system=BJhTERT cells | key= Cc1[nH]c(Br)nc1-c1ccc(CC(=O)Nc2noc3c2CCCC3)cc1 [compound 21]
76

Give percentage cell viability (BJhTERT cells) of the following compound: Cc1nn(-c2ccc(CC(=O)Nc3noc4c3CCCC4)cc2)c2ccccc12 [compound 10]
8.77

So what percentage cell viability did Cc1nc(-c2ccc(CC(=O)Nc3noc4c3CCCC4)cc2)c(C)[nH]1 [compound 17] get with BJhTERT cells?
38.43

// map Cc1nn(-c2ccc(CC(=O)Nc3noc4c3CCCC4)cc2)c2ccc(N)cc12 [compound 14] to recorded percentage cell viability (system: BJhTERT cells)
41.42

Can you look up percentage cell viability on BJhTERT cells for Cc1cc(C2CC2)n(-c2ccc(CC(=O)Nc3noc4c3CCCC4)cc2)n1 [compound 9] ?
80.1

Fill in the recorded percentage cell viability for this compound, with BJhTERT cells as test system: Cc1nc(-c2ccc(CC(=O)Nc3noc4c3CCCC4)c(F)c2)c(C)[nH]1 [compound 20]
24.23

Please tell me: percentage cell viability of Nc1nn(-c2ccc(CC(=O)Nc3noc4c3CCCC4)cc2)c2ccccc12 [compound 11] , system BJhTERT cells?
40.28

BJhTERT cells / percentage cell viability / Cc1nc(-c2ccc(CC(=O)Nc3noc4c3CCCC4)cc2F)c(C)[nH]1 [compound 18] : value?
41.01

# returns recorded percentage cell viability (system: BJhTERT cells) for Cc1cc(C)n(-c2cc(F)c(CC(=O)Nc3noc4c3CCCC4)c(F)c2)n1 [compound 8]
42.84

// fetch BJhTERT cells percentage cell viability for Cc1nc(-c2ccc(CC(=O)Nc3noc4c3CCCC4)c(C)c2)c(C)[nH]1 [compound 19]
24.77
